Where do these numbers come from? They come from paper PMC6210068.

Target: 5HT2A serotonin receptor (Homo sapiens)
Sequence (P28223 whole entry): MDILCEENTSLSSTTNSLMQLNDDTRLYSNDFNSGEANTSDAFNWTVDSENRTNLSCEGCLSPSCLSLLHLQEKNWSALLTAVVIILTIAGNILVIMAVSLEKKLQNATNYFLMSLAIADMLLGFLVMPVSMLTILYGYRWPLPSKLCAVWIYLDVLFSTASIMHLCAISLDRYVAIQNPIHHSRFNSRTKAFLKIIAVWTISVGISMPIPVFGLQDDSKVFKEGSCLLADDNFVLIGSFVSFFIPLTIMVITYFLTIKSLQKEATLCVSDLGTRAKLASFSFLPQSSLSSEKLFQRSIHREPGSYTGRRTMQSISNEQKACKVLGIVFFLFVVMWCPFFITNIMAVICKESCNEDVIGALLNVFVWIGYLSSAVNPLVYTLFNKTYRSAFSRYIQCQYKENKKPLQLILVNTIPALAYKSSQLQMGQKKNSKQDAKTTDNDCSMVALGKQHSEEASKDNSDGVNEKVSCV
Assay: PDSP off-target binding, 5HT2A
Reported Ki values are given for each entry in this list.
Answer with a number only, understood to be in nM.

                                   compound  observed_result
0  O[C@@H]1[C@H](O)[C@@H]2C[C@@H]2[C@H]1n1ccc2c(NC(C3CC3)C3CC3)nc(C#Cc3ccc(Br)s3)nc21 [compound 57]             4340

In the following, a different compound is considered.
### Prompt Ki for CCOC(=O)[C@@]12C[C@@H]1[C@@H](n1cnc3c(NC)nc(C#Cc4ccc(Cl)s4)cc31)[C@H](O)[C@@H]2O [compound 27] ?
### Response 1300
